# Tested on: HOP-62 NSCLC
# assayExplanation: NCI tumour cell line growth inhibition, 48 h
readout: TGI

Take a look at these entries with their results.
INSERT INTO assay_data (molecule, result) VALUES
  ('CC(C)OC(=O)NNc1cccc(Cl)c1', '> 100 µM'),
  ('O=c1[nH]c2ccccc2n2cc3ccccc3c12', '17.9 µM'),
  ('COC(=O)c1ccc(C)cc1C1CN=NC12Cc1cc(C)ccc1C2=O (configuration not stated)', '> 100 µM'),
  ('N#C/C(=C\c1ccc(F)cc1)n1nc2cccc(F)c2n1', '> 100 µM'),
  ('CCOC(=O)Nc1ccc2c(c1)N(C(=O)CCN(CC)CC)c1ccccc1S2', '134 µM');

Find the measured TGI of O=c1c(O)cc2c(O)oc3c(=O)c(O)c(O)c4c(O)oc1c2c43 and report it.
> 100 µM

Find the measured TGI of CN1C(=O)CN2C(Cl)(Cl)C2(c2ccccc2)c2cc(Cl)ccc21 (configuration not stated) and report it.
> 100 µM

Find the measured TGI of CCOC(=O)[C@@H](C)C[C@H](Cc1ccccc1)NC(=O)c1csc([C@@H](C[C@H](C(C)C)N(C)C(=O)[C@@H](NC(=O)[C@H]2C[C@H](O)CCN2C)C(C)C)OC(C)=O)n1 and report it.
> 16.7 µM

Find the measured TGI of COCC12CCC(OC)C34C5CC6(O)C(OC)C=C(C5C6OC(=O)c5ccccc5)C(C(OC)C13)C4N(C)C2 (configuration not stated) and report it.
> 100 µM

Find the measured TGI of CS(=N)(=O)CCC(N)P(=O)(O)O (configuration not stated) and report it.
> 100 µM

Find the measured TGI of C/C(=N/NC(=S)N1CC2CCC(CC2)C1)c1cnccn1 and report it.
14.9 µM

---

# System: SK-MEL-5 melanoma
# assayExplanation: NCI tumour cell line growth inhibition, 48 h
readout: GI50

Take a look at these entries with their results.
INSERT INTO measurements (moleculesmiles, result) VALUES
  ('CCCOc1ccc(/C=N/Nc2cc(C)nc3ccc(Cl)cc23)cc1', '1540 nM'),
  ('O=C(c1cccs1)c1nc2cc(Cl)ccc2[n+]([O-])c1C(F)(F)F', '45400 nM'),
  ('O=C(NS(=O)(=O)c1ccc(NC[C@H]2COCCO2)c([N+](=O)[O-])c1)c1ccc(N2CCN(CC3=C(c4ccc(Cl)cc4)CC4(CCC4)CC3)CC2)cc1Oc1cnc2[nH]ccc2c1', '1600 nM');

Please examine the following record next.
Retrieve GI50 on SK-MEL-5 melanoma; query NCCCn1c2c(c3ccc([N+](=O)[O-])cc3c1=O)C(=O)c1cc(F)ccc1-2
60.3 nM

---

# System: NCI-H23 lung
# assayExplanation: NCI tumour cell line growth inhibition, 48 h
Catalogue of compounds with associated TGI

INSERT INTO assay_data (compound, testedtarget, result) VALUES
  ('O=C1Oc2cc3c(c4cccc1c24)OCN(c1ccccc1)C3', 'NCI-H23 lung', '> 100 µM'),
  ('Cc1[nH]c2nc3c(ncn3COCCO)c(=O)n2c1C(c1ccccc1)(c1ccccc1)c1ccccc1', 'NCI-H23 lung', '23.1 µM'),
  ('CC(=O)SC(SC(C)=O)SC(C)=O', 'NCI-H23 lung', '> 100 µM'),
  ('Cc1c(-c2nc(N)c(C#N)c(N)c2C#N)c(=O)oc2ccccc12', 'NCI-H23 lung', '> 100 µM'),
  ('CC(C)OC(=O)NNc1cccc(Cl)c1', 'NCI-H23 lung', '> 100 µM');

Please examine the following record next.
Find the measured TGI of O=c1[nH]c(F)nc2c1ncn2C1OC(CO)C(O)C1O (stereo unspecified) and report it.
> 100 µM
